Tested on: SR
protocol.description: NCI tumour cell line growth inhibition, 48 h
Activity calls are given as the source filed them. Rule as the data show it: active = GI50 up to about 1.1 µM and inactive = higher.
Outcome codes: active, inactive

> print(dat)
                                   compound  label.class
1  O=C1CCC2(CC1)Cc1ccccc1C2O (stereo unspecified)     inactive
2  O=c1[nH]cnc2c1ncn2[C@H]1CO[C@@H](CO)[C@@H]1O     inactive
3    O=C(/C=C/c1ccccc1O)C(c1ccccc1)c1ccccc1     inactive
4             c1ccc2c(c1)C1=NCCN1c1ccccc1-2       active
5  COC(=O)N/N=C/c1oc(-c2cccc([N+](=O)[O-])c2)c(-c2cccc([N+](=O)[O-])c2)c1[N+](=O)[O-]     inactive
6  O=c1[nH]n(Cc2ccccn2)c2ccc([N+](=O)[O-])cc12     inactive
